- Tested on: Akkermansia muciniphila
- assay_notes: growth AUC relative to DMSO control (median of replicates) (fraction); higher = more growth (less inhibition), active = hit call of the paper
- measurement_conditions: 20 µM; 24 h
measurement_type: growth AUC
Numbers only.

- compound: "CCCCCCC(C)OC(=O)COc1nc(F)c(Cl)c(N)c1Cl (stereo not drawn)"
  growth AUC: 0.94
- compound: "CCCCOCN(C(=O)CS(=O)(=O)[O-])c1c(CC)cccc1CC.[Na+]"
  growth AUC: 0.979
- compound: "COC(=O)c1csc(C)c1S(=O)(=O)NC(=O)n1nc(OC)n(C)c1=O"
  growth AUC: 1.17
- compound: "COc1ccc(Cl)c(Cl)c1Cl"
  growth AUC: 0.963
- compound: "COc1nc(OC)nc(C(=O)c2cccc(F)c2N(C)S(=O)(=O)C(F)F)n1"
  growth AUC: 0.993
- compound: "CN(C)c1ccc(N=NS(=O)(=O)[O-])cc1.[Na+]"
  growth AUC: 1.03
- compound: "CCOC(=O)NCCOc1ccc(Oc2ccccc2)cc1"
  growth AUC: 0.87
- compound: "O=C(Nc1ccc(F)cc1)c1cccc(Oc2cccc(C(F)(F)F)c2)n1"
  growth AUC: 0.978
- compound: "Nc1ccc(S(=O)(=O)Nc2nccs2)cc1"
  growth AUC: 0.9
- compound: "CC(C)c1cccc2c(=O)c3ccccc3sc12"
  growth AUC: 1.1

Working through the 2 compounds below one at a time, give growth AUC for each.
1. COC(=O)c1ccc(CNS(C)(=O)=O)cc1S(=O)(=O)NC(=O)Nc1nc(OC)cc(OC)n1
2. CN(C)C(=O)SCCCCOc1ccccc1

1. 0.864
2. 0.993
